Ref: patent US20210380680A1

Biological target: human Claudin 18.2 (CLDN18.2) (human, UniProt P56856-2 1-261)
Test: cell-based or functional assay
Collected ADCC EC50, NUGC4-CLDN18.2, PBMC values appear next to each entry.
Provide the reading as a plain figure in nM.

binder	ADCC EC50, NUGC4-CLDN18.2, PBMC / nM
413H9F8-cp2 (antibody, V domains shown, humanized IgG; constant regions not specified) VH: DVQLVESGGGLVQPGGSLRLSCAASGFTFSSFGMHWVRQAPGKGLEWVAYISSGSSPIYYVDKLKGRFTISRDNAKNSLYLQMNSLRAEDTAVYYCARAGYAVRNALDYWGQGTLVTVSS VL: EIVMTQSPPTLSLSPGERVTLSCKSSQSLLNVGNQKNYLAWYQQKPGQAPRLLIYGASTRESGIPARFSGSGSGTDFTLTISSLQPEDFAVYYCQNDLFYPLTFGGGTKVEIK	0.0492
413H9F8-cp2-V2-DL (antibody, V domains shown) VH: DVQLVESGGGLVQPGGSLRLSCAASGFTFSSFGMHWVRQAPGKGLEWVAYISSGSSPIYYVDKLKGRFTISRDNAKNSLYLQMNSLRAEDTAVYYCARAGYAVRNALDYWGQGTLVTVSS VL: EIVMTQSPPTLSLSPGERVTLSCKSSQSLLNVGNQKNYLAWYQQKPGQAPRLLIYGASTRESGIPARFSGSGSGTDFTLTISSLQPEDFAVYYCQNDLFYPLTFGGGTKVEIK	0.0146
413H9F8-cp2-MG-DL (antibody, V domains shown) VH: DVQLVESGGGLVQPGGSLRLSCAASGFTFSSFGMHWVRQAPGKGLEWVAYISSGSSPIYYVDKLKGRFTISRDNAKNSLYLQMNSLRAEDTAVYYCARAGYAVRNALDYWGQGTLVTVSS VL: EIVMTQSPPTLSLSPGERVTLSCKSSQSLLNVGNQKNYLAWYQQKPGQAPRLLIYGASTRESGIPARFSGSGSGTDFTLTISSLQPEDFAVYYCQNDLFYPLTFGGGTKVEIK	0.0175

Input: Give me measured ADCC EC50, NUGC4-CLDN18.2, PBMC, please, for this binder: 413H9F8-H2L2-MG-DL (antibody, V domains shown) VH: EVQLVESGGGLVQPGGSLRLSCAASGFTFSSFGMHWVRQAPGKGLEWVAYISSGSSPIYYVDKLKGRFTISRDNAKNSLYLQMNSLRAEDTAVYYCARAGYAVRNALDYWGQGTLVTVSS VL: DIVMTQSPDSLAVSLGERATINCKSSQSLLNVGNQKNYLAWYQQKPGQPPKLLIYGASTRESGVPDRFSGSGSGTDFTLTISSLQAEDVAVYFCQNDLFYPLTFGGGTKVEIK
Output: 0.0046

Input: Give me measured ADCC EC50, NUGC4-CLDN18.2, PBMC, please, for this binder: 413H9F8-H2L2-V2-DL (antibody, V domains shown) VH: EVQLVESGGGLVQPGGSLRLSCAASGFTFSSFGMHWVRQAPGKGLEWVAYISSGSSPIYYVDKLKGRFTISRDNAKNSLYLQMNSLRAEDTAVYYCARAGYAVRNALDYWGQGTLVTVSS VL: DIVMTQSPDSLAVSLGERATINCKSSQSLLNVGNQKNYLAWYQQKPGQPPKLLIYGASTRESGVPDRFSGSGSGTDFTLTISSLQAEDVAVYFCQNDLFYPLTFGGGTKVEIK
Output: 0.0148

Input: Give me measured ADCC EC50, NUGC4-CLDN18.2, PBMC, please, for this binder: 413H9F8-H2L2 (antibody, V domains shown, humanized IgG; constant regions not specified) VH: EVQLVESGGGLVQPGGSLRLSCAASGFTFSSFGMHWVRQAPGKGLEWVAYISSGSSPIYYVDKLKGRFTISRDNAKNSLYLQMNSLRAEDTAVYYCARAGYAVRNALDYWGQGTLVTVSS VL: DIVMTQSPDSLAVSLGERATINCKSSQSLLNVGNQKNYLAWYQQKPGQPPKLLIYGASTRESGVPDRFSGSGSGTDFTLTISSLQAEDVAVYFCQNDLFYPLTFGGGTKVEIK
Output: 0.48
